- TESTED_TARGET: Ab aggregates of AD brain homogenates (Homo sapiens, UniProt P05067)
- Construct: to Ab aggregates of AD brain homogenates; from tissue; host or cells: post-mortem grey matter of AD patients, homogenised in PBS
- Sequence (P05067 672-713 limits assumed): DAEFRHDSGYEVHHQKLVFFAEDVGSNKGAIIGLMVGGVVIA
- ASSAY_DETAILS: Inhibition of [125I]IMPY binding to Aβ aggregates of AD brain homogenates
- Parameters: species or system human (AD patients)
- Description: Postmortem brain tissues were obtained from AD patients at autopsy, and neuropathological diagnosis was confirmed by current criteria (NIA-Reagan Institute Consensus Group, 1997). […] Binding assays were carried out in 12×75 mm borosilicate glass tubes. […] The mixture was incubated at 37° C. for 2 hr and the bound and the free radioactivity were separated by vacuum filtration through Whatman GF/B filters using a Brandel M-24R cell harvester followed by 2×3 ml washes of PBS at room temperature. […]
ASSAY_READOUT: Ki (µM)

Examples with answers:
- COMPOUND: "CN(C)c1ccc(-c2cn3cc(OCCOCCOCCOCCOCCOCCOCCOCCF)ccc3n2)cc1 [Compound 12e]"
  UNIT_SPEC: "µM"
  Ki: 0.387
- COMPOUND: "CN(C)c1ccc(C=Cc2nc3ccc(OCCOCCOCCOCCOCCOCCOCCOCCF)cc3o2)cc1"
  UNIT_SPEC: "µM"
  Ki: 0.006
- COMPOUND: "CN(C)c1ccc(-c2cn3cc(OCCOCCOCCF)ccc3n2)cc1 [Compound 12c]"
  UNIT_SPEC: "µM"
  Ki: 0.03
- COMPOUND: "CN(C)c1ccc(C=Cc2nc3ccc(OCCF)cc3o2)cc1"
  UNIT_SPEC: "µM"
  Ki: 0.012

1: CN(C)c1ccc(-c2cn3cc(OCCOCCF)ccc3n2)cc1 [Compound 12b]
2: CN(C)c1ccc(-c2cn3cc(OCCF)ccc3n2)cc1 [Compound 12a]
Request: For the pair 1 and 2 , which entry has the numerically smaller recorded Ki? Kindly give the label for the entry you pick.
Response: 2
(2: 0.016 µM, 1: 0.031 µM)

====

- TESTED_TARGET: Ab aggregates of AD brain homogenates (Homo sapiens, UniProt P05067)
- Construct: to Ab aggregates of AD brain homogenates; from tissue; host or cells: post-mortem grey matter of AD patients, homogenised in PBS
- ASSAY_DETAILS: Inhibition of [125I]IMPY binding to Aβ aggregates of AD brain homogenates
- Parameters: species or system human (AD patients)
ASSAY_READOUT: Ki (nM)

These recorded examples may help you get a feel for the data.
- MOLECULE: "CNc1ccc(-c2nc3ccc(OCCOCCOCCOCCOCCOCCOCCOCCF)cc3s2)cc1 [Compound 5d]"
  UNIT_SPEC: "nM"
  REPORTED_VALUE: 9
- MOLECULE: "CNc1ccc(-c2nc3ccc(OCCOCCF)cc3s2)cc1 [Compound 5a]"
  UNIT_SPEC: "nM"
  REPORTED_VALUE: 2.2
- MOLECULE: "CNc1ccc(-c2nc3ccc(OCCOCCOCCF)cc3s2)cc1 [Compound 5b]"
  UNIT_SPEC: "nM"
  REPORTED_VALUE: 3.8
- MOLECULE: "CN(C)c1ccc(/C=C/c2nc3ccc(OCCOCCOCCOCCOCCOCCF)cc3o2)cc1 [Compound 8c]"
  UNIT_SPEC: "nM"
  REPORTED_VALUE: 10

a: CNc1ccc(-c2nc3ccc(OCCOCCOCCOCCOCCOCCF)cc3s2)cc1 [Compound 5c]
b: CN(C)c1ccc(-c2cn3cc(OCCOCCOCCOCCOCCOCCF)ccc3n2)cc1 [Compound 12d]
c: CN(C)c1ccc(C=Cc2nc3ccc(OCCOCCOCCF)cc3o2)cc1 [Compound 8b]
Request: Rank ascending by Ki. Answer format: list of labels, ordered as asked.
Response: a, c, b
(a: 4.7 nM, c: 14.5 nM, b: 96 nM)
